Biological target: T1, SfiI endonuclease wt (UniProt O52512 1-269)
T1 sequence: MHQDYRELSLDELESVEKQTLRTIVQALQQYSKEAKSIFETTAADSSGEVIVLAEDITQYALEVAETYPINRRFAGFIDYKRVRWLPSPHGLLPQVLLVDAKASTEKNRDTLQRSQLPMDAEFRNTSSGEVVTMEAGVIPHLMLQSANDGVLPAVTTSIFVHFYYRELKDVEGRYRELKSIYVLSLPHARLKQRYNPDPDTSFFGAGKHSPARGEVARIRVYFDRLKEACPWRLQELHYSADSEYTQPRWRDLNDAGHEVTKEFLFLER
Assay: EMSA
measured-property: Kd

Exercise: Returns the measured Kd for the input binder. Input: HEX-35 (dsDNA) DNA 1: TCGATCCATGTGGCCAACAAGGCCTATTTGTCGAT DNA 2: ATCGACAAATAGGCCTTGTTGGCCACATGGATCGA
Key: < 10 nM
